Values were extracted from paper PMC8468039.

System: HCT-116
experiment.description: NCI growth inhibition (SRB) assay
Assay type: cell-based
run.conditions: Homo sapiens, HCT-116, Colon Cancer, single dose 10 µM, 48 h, read-out: Percent Growth Inhibition (GI)
observation.type: inhibition at 10 µM (%)
// return numeric value only (unit: %, not printed)

Bench note, HCT-116: entry COc1ccc(Oc2nc(Nc3ccc(N4CCOCC4)cc3)ncc2NC(=O)Cc2cc(OC)cc(OC)c2)cc1 [5e] , its inhibition at 10 µM = 0.34

Entry COc1ccc(Oc2nc(Nc3ccc(N4CCOCC4)cc3)ncc2NC(=O)c2ccc3c(c2)OCO3)cc1 [5a] , HCT-116 data, inhibition at 10 µM value: 14.6

Field inhibition at 10 µM (system: HCT-116) for entry COc1ccc(Oc2nc(Nc3ccc(N4CCOCC4)cc3)ncc2NC(=O)c2cccc(SC)c2)cc1 [5g] = 23.7

Record COc1ccc(Oc2nc(Nc3ccc(N4CCOCC4)cc3)ncc2NC(=O)c2ccnc([N+](=O)[O-])c2)cc1 [5f] has HCT-116 inhibition at 10 µM equal to -0.19

Log: HCT-116, molecule COc1ccc(Oc2nc(Nc3ccc(N4CCOCC4)cc3)ncc2NC(=O)c2ccc(OC)c(OC)c2)cc1 [5b] , inhibition at 10 µM = 6.01

Lab entry: HCT-116 assay, molecule CCOc1cc(OCC)cc(C(=O)Nc2cnc(Nc3ccc(N4CCOCC4)cc3)nc2Oc2ccc(OC)cc2)c1 [5d] , inhibition at 10 µM = 6.73

# value of inhibition at 10 µM, HCT-116, item COc1ccc(Oc2nc(Nc3ccc(N4CCOCC4)cc3)ncc2NC(=O)c2cc(OC)c(OC)c(OC)c2)cc1 [5c] = 23.9

* * *

target.or.test.system: DAPK1 (Homo sapiens, UniProt P53355)
Construct: purchased Reaction Biology Corp
Sequence (P53355 whole entry): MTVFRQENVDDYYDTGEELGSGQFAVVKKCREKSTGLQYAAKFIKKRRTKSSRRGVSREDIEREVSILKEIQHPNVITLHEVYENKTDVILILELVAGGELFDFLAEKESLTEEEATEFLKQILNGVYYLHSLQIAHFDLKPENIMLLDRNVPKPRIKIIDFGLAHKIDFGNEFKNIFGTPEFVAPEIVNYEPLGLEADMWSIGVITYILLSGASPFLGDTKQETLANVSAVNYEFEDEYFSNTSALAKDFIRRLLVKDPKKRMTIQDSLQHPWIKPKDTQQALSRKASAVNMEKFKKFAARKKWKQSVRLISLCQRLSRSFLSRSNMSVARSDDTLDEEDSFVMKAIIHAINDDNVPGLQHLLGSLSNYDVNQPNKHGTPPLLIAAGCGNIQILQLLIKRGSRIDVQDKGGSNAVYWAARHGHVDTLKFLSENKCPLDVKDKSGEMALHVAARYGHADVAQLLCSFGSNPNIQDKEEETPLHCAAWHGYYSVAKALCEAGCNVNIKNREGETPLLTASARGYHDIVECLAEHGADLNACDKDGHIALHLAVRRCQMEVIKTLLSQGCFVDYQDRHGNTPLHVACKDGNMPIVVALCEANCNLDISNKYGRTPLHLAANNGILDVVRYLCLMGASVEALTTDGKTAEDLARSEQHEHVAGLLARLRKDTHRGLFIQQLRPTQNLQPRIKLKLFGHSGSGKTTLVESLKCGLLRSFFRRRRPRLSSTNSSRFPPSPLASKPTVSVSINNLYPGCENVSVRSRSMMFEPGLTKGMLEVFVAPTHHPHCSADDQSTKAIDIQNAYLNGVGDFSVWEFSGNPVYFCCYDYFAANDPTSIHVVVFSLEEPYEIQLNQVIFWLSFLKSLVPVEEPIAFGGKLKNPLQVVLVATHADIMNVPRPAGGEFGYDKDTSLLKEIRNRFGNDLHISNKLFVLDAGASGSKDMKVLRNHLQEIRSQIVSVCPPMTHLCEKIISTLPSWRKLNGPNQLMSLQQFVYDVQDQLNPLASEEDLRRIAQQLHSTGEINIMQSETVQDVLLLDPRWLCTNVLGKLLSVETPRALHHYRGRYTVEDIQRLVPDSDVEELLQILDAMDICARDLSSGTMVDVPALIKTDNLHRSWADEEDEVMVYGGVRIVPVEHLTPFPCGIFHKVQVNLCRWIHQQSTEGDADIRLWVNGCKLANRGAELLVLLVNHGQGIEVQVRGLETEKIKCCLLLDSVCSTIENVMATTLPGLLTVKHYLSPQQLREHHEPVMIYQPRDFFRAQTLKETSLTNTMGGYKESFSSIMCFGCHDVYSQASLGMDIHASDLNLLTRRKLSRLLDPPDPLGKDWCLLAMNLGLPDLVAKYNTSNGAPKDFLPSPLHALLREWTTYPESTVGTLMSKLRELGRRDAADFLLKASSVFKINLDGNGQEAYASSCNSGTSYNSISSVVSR
experiment.description: In vitro kinase inhibition assay (HotSpot, Reaction Biology)
Assay type: biochemical
run.conditions: single dose of 10 µM; read-out: Percent Inhibition, DAPK1
observation.type: inhibition at 10 µM (%)
Kindly answer with a numeric value in %, unit omitted.

Lookup result for COc1ccc(Oc2nc(Nc3ccc(N4CCOCC4)cc3)ncc2NC(=O)c2ccc(OC)c(OC)c2)cc1 [5b] ; measured inhibition at 10 µM: 65

Consider COc1ccc(Oc2nc(Nc3ccc(N4CCOCC4)cc3)ncc2NC(=O)c2ccc3c(c2)OCO3)cc1 [5a] . Its measured inhibition at 10 µM is 55

Sample COc1ccc(Oc2nc(Nc3ccc(N4CCOCC4)cc3)ncc2NC(=O)Cc2cc(OC)cc(OC)c2)cc1 [5e] ; inhibition at 10 µM observed: 47.1

Form field inhibition at 10 µM, entry COc1ccc(Oc2nc(Nc3ccc(N4CCOCC4)cc3)ncc2NC(=O)c2ccnc([N+](=O)[O-])c2)cc1 [5f] : 65.5

* * *

observation.type: pIC50
Just the number, please; pIC50 means minus log10 of the concentration in mol/L.

pIC50 value, target or system FMS (Homo sapiens), for CCOc1cc(OCC)cc(C(=O)Nc2cnc(Nc3ccc(N4CCOCC4)cc3)nc2Oc2ccc(OC)cc2)c1 : 6.67

pIC50 for FMS (Homo sapiens) with input COc1ccc(Oc2nc(Nc3ccc(N4CCOCC4)cc3)ncc2NC(=O)c2cccc(SC)c2)cc1 equals 6.96

* * *

target.or.test.system: LCK (Homo sapiens, UniProt P06239)
Construct: purchased Reaction Biology Corp
Sequence (P06239 whole entry): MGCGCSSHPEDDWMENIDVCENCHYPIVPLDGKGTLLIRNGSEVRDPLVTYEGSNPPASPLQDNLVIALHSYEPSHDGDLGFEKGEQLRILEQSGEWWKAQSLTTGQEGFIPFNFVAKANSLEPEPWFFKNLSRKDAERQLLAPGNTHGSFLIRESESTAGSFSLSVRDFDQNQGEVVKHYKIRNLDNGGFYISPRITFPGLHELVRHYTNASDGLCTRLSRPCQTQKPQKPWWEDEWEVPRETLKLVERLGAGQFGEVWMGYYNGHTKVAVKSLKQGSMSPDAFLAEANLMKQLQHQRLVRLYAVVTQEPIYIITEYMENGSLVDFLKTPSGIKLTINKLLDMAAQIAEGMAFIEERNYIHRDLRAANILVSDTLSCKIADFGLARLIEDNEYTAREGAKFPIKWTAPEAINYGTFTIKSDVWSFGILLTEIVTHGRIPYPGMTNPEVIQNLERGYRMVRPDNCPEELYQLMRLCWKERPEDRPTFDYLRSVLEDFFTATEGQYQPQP
experiment.description: In vitro kinase inhibition assay (HotSpot, Reaction Biology)
Type: biochemical
run.conditions: single dose of 10 µM; 10 µM ATP as printed; read-out: Percent Inhibition, LCK
Would you please tag the item rule met when its inhibition at 10 µM is 60% or above, and rule not met when it is below?

Input: Please indicate if the recorded inhibition at 10 µM for COc1ccc(Oc2nc(Nc3ccc(N4CCOCC4)cc3)ncc2NC(=O)c2ccc3c(c2)OCO3)cc1 [5a] meets or exceeds 60%.
Output: rule met

Input: inhibition at 10 µM >= 60% for COc1ccc(Oc2nc(Nc3ccc(N4CCOCC4)cc3)ncc2NC(=O)c2ccc(OC)c(OC)c2)cc1 [5b] ?
Output: rule met

Input: inhibition at 10 µM >= 60% for COc1ccc(Oc2nc(Nc3ccc(N4CCOCC4)cc3)ncc2NC(=O)c2ccnc([N+](=O)[O-])c2)cc1 [5f] ?
Output: rule met

Input: # bool: inhibition at 10 µM of COc1ccc(Oc2nc(Nc3ccc(N4CCOCC4)cc3)ncc2NC(=O)Cc2cc(OC)cc(OC)c2)cc1 [5e] >= 60%
Output: rule not met

Input: Decide: inhibition at 10 µM of COc1ccc(Oc2nc(Nc3ccc(N4CCOCC4)cc3)ncc2NC(=O)c2cc(OC)c(OC)c(OC)c2)cc1 [5c] >= 60%?
Output: rule not met

Input: Quick check: does COc1ccc(Oc2nc(Nc3ccc(N4CCOCC4)cc3)ncc2NC(=O)c2cccc(SC)c2)cc1 [5g] have inhibition at 10 µM greater than or equal to 60%?
Output: rule met

Input: Does CCOc1cc(OCC)cc(C(=O)Nc2cnc(Nc3ccc(N4CCOCC4)cc3)nc2Oc2ccc(OC)cc2)c1 [5d] have a reported inhibition at 10 µM of at least 60%?
Output: rule not met

* * *

target.or.test.system: FMS (Homo sapiens, UniProt P07333)
Construct: purchased Reaction Biology Corp
Sequence (P07333 20-972): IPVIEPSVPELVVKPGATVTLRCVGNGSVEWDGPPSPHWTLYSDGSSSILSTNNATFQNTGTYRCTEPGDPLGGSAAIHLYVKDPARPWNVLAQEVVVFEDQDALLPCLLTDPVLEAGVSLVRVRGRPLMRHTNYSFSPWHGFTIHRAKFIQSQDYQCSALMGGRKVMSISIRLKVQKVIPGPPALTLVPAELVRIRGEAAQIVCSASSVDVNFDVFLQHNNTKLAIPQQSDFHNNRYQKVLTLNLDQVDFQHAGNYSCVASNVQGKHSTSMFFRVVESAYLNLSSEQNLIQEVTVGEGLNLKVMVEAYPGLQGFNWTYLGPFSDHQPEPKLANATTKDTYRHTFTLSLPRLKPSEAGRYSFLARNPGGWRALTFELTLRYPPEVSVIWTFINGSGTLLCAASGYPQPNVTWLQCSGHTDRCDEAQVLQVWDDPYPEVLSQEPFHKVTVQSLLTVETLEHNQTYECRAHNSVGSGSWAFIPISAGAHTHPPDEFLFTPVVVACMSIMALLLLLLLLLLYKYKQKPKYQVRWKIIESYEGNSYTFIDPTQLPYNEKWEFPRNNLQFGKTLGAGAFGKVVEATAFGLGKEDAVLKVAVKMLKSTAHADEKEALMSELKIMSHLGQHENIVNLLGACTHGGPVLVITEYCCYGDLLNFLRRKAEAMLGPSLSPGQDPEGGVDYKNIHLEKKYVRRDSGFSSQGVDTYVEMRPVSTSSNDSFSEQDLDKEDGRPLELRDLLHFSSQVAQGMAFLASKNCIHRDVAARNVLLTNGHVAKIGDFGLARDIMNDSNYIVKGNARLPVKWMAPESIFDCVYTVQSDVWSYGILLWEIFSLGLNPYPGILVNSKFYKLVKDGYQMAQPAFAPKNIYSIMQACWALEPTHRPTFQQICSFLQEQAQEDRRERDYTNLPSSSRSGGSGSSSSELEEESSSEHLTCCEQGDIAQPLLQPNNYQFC
experiment.description: In vitro kinase inhibition assay (HotSpot, Reaction Biology)
Format: biochemical
run.conditions: single dose of 10 µM; 10 µM ATP as printed; read-out: Percent Inhibition, FMS
Would you please tag the item 1.0 when its inhibition at 10 µM is 80% or above, and 0.0 when it is below?

Input: Is inhibition at 10 µM for COc1ccc(Oc2nc(Nc3ccc(N4CCOCC4)cc3)ncc2NC(=O)c2ccc(OC)c(OC)c2)cc1 [5b] at or above 80%?
Output: 0.0

Input: Assess whether reported inhibition at 10 µM for COc1ccc(Oc2nc(Nc3ccc(N4CCOCC4)cc3)ncc2NC(=O)c2ccnc([N+](=O)[O-])c2)cc1 [5f] sits at 80% or higher.
Output: 0.0

Input: Does inhibition at 10 µM meet or surpass 80% for COc1ccc(Oc2nc(Nc3ccc(N4CCOCC4)cc3)ncc2NC(=O)c2ccc3c(c2)OCO3)cc1 [5a] ?
Output: 1.0

Input: I'd appreciate it if you could say whether COc1ccc(Oc2nc(Nc3ccc(N4CCOCC4)cc3)ncc2NC(=O)Cc2cc(OC)cc(OC)c2)cc1 [5e] has inhibition at 10 µM at least equal to 80%.
Output: 0.0

Input: Does the molecule COc1ccc(Oc2nc(Nc3ccc(N4CCOCC4)cc3)ncc2NC(=O)c2cc(OC)c(OC)c(OC)c2)cc1 [5c] have recorded inhibition at 10 µM that is 80% or more?
Output: 0.0

Input: Dear colleague, could you confirm whether CCOc1cc(OCC)cc(C(=O)Nc2cnc(Nc3ccc(N4CCOCC4)cc3)nc2Oc2ccc(OC)cc2)c1 [5d] has inhibition at 10 µM at or above 80%?
Output: 1.0

* * *

System: PC-3
experiment.description: NCI growth inhibition (SRB) assay
Type: cell-based
run.conditions: Homo sapiens, PC-3, Prostate Cancer, single dose 10 µM, 48 h, read-out: Percent Growth Inhibition (GI)
observation.type: inhibition at 10 µM (%)
Lab book: enter the figure in %, no units written.

Looking up COc1ccc(Oc2nc(Nc3ccc(N4CCOCC4)cc3)ncc2NC(=O)c2ccnc([N+](=O)[O-])c2)cc1 , I see its inhibition at 10 µM listed as 13.8

Given item COc1ccc(Oc2nc(Nc3ccc(N4CCOCC4)cc3)ncc2NC(=O)Cc2cc(OC)cc(OC)c2)cc1 , the value recorded as its inhibition at 10 µM is 8.05

The recorded inhibition at 10 µM for entry COc1ccc(Oc2nc(Nc3ccc(N4CCOCC4)cc3)ncc2NC(=O)c2cccc(SC)c2)cc1 equals 24.9

The compound listed as COc1ccc(Oc2nc(Nc3ccc(N4CCOCC4)cc3)ncc2NC(=O)c2ccc(OC)c(OC)c2)cc1 has a reported inhibition at 10 µM of 0.75

* * *

Test system: T-47D
experiment.description: NCI growth inhibition (SRB) assay
Assay type: cell-based
run.conditions: Homo sapiens, T47D, Breast Cancer, single dose 10 µM, 48 h, read-out: Percent Growth Inhibition (GI)
observation.type: inhibition at 10 µM (%)
Your answer is read as %, so omit the unit and give the number.

Looking up COc1ccc(Oc2nc(Nc3ccc(N4CCOCC4)cc3)ncc2NC(=O)Cc2cc(OC)cc(OC)c2)cc1 [5e] , I found its inhibition at 10 µM recorded as 10.2

Consider COc1ccc(Oc2nc(Nc3ccc(N4CCOCC4)cc3)ncc2NC(=O)c2cc(OC)c(OC)c(OC)c2)cc1 [5c] . Its measured inhibition at 10 µM is 0.52

Reported inhibition at 10 µM for COc1ccc(Oc2nc(Nc3ccc(N4CCOCC4)cc3)ncc2NC(=O)c2ccc3c(c2)OCO3)cc1 [5a] was 6.78

Form field inhibition at 10 µM, entry CCOc1cc(OCC)cc(C(=O)Nc2cnc(Nc3ccc(N4CCOCC4)cc3)nc2Oc2ccc(OC)cc2)c1 [5d] : 18.4

The reported inhibition at 10 µM of the molecule COc1ccc(Oc2nc(Nc3ccc(N4CCOCC4)cc3)ncc2NC(=O)c2cccc(SC)c2)cc1 [5g] was 28.2

Please fill in: inhibition at 10 µM reported for COc1ccc(Oc2nc(Nc3ccc(N4CCOCC4)cc3)ncc2NC(=O)c2ccnc([N+](=O)[O-])c2)cc1 [5f] = 5.93

Entry COc1ccc(Oc2nc(Nc3ccc(N4CCOCC4)cc3)ncc2NC(=O)c2ccc(OC)c(OC)c2)cc1 [5b] , inhibition at 10 µM reported as 2.41
